Value source: PubChem BioAssay (NCI)

Tested on: SNB-19 CNS
Test: NCI tumour cell line growth inhibition, 48 h; in the data active = GI50 below about 0.43 µM; inactive = the rest
Please state which outcome applies, choosing from t (active), f (inactive)

Solved cases (3 shown):
Cc1cc(I)cc(CN(C)CCN2CCCC2)c1O	f
C=C[C@H]1CCC/C=C/[C@@H]2C[C@H](O)C[C@H]2[C@H](O)/C=C/C(=O)O1	t
Cc1cc(N2CCN(c3ccnc4cc(Cl)ccc34)CC2)nc(NC2CCCCC2)n1	f

Ask: Hey, what did the test say about Cc1cc(N2CCCC2)nc(NC2CCCC(Nc3ccnc4cc(Cl)ccc34)C2)n1 (stereo unspecified) ?
Reply: f

Ask: Hey, what did the test say about c1cn2cc(-c3ccc4ncn(C5CCCCC5)c4c3)nc(-c3ccc4c(c3)ncn4C3CCCCC3)c2n1 ?
Reply: f
